The values you see were collected from patent US20250025451A1.

- Tested on: SU60 patient-derived colon cancer organoid model
- EXPERIMENT_DESCRIPTION: organoid colony formation and viability assay, SU60
- Type: cell-based, human
- STATED_CONDITIONS: Homo sapiens; SU60 colorectal carcinoma model; colony formation and viability assays
OBSERVABLE: IC50

INPUT: Tell me IC50 of CC(C)c1ccc(N(C)c2ccc3c(c2)OCC[C@H]3CNc2cnccc2C(=O)O)cc1 when tested on SU60 patient-derived colon cancer organoid model.
OUTPUT: < 150 nM

----------
- System: 301 cancer cell lines from different tumor types
- EXPERIMENT_DESCRIPTION: 2D cell viability inhibition assay, broad cancer cell line panel (OncoPanel; CellTiter-Glo)
- Assay type: cell-based
- STATED_CONDITIONS: Homo sapiens, SCC-25, 168 h, SCC25 (upper aerodigestive tract, squamous cell carcinoma)
OBSERVABLE: EC50

INPUT: Recall and state the measured EC50 for CC(C)c1ccc(N(C)c2ccc3c(c2)OCC[C@H]3CNc2cnccc2C(=O)O)cc1 .
OUTPUT: ≥ 10 µM
